study_system: BAF3-KIF5B-RET cells (Homo sapiens, UniProt P07949)
Construct: fused on or other part: P33176 (Kinesin-1 heavy chain)
Sequence (P07949 whole entry, change not shown, the tested form may be a part): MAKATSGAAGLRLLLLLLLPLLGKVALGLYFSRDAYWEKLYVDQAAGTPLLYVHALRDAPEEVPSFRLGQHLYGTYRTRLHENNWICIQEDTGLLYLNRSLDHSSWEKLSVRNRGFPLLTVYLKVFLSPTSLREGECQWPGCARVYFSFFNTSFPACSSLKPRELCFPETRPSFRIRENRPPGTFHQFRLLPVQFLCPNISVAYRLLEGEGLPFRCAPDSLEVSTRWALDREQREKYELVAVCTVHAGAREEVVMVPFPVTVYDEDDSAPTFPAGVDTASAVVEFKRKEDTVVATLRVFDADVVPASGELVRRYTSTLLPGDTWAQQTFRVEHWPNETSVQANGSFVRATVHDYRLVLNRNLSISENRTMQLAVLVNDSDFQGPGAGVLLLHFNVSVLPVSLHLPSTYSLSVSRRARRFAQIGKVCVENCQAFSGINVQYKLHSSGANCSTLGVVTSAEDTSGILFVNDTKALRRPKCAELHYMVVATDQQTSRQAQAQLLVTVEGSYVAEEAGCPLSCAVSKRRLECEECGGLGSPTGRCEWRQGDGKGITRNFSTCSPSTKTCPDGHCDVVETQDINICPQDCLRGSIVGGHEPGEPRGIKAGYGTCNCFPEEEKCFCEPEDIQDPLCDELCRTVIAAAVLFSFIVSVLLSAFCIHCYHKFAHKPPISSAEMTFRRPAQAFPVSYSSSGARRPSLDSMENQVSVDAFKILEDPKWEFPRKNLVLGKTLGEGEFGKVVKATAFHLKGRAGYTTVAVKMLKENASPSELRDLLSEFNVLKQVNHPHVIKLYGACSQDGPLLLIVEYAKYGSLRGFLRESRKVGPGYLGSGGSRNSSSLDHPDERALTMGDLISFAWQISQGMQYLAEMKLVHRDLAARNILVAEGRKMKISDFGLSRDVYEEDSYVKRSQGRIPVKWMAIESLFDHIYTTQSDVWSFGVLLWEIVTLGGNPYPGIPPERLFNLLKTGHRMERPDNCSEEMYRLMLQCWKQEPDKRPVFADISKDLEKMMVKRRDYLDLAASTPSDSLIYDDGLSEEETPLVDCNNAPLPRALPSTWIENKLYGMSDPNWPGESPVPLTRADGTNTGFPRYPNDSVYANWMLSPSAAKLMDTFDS
method_summary: BAF3-KIF5B-RET Cell proliferation assay (CellTiter-Glo, 72 hours)
Assay type: cell-based
recorded_conditions: growth inhibition, read-out: BA/F3-KIF5B-RET Cellular activity
endpoint_label: GI50

[[record]]
chemical_string = "Cn1cc(-c2cc(-c3cnc(N4C[C@@H]5[C@H](C4)[C@H]5NC(=O)c4ncccc4Cl)cn3)c3c(C#N)cnn3c2)cn1"
endpoint_label = "GI50"
observed_value = "10 to 50 nM"

[[record]]
chemical_string = "COc1ccnc(C(=O)N[C@]2(C)C[C@H]3CN(c4cnc(-c5cc(-c6cnn(C)c6)cn6ncc(C#N)c56)cn4)C[C@H]3C2)c1"
endpoint_label = "GI50"
observed_value = "≤ 10 nM"

[[record]]
chemical_string = "Cn1ccc(-c2cc(-c3cnc(N4C[C@@H]5C[C@@](C)(NC(=O)c6ncccc6Cl)C[C@@H]5C4)cn3)c3c(C#N)cnn3c2)n1"
endpoint_label = "GI50"
observed_value = "≤ 10 nM"

[[record]]
chemical_string = "COc1ccc(CN2[C@@H]3CC[C@H]2[C@H]2CN(c4ccc(-c5cc(-c6cnn(C)c6)cn6ncc(C#N)c56)cn4)C[C@H]23)cn1"
endpoint_label = "GI50"
observed_value = "10 to 50 nM"

[[record]]
chemical_string = "COc1ccc(C(=O)N[C@]2(C)C[C@H]3CN(c4cnc(-c5cc(-c6cnn(C)c6)cn6ncc(C#N)c56)cn4)C[C@H]3C2)cn1"
endpoint_label = "GI50"
observed_value = "≤ 10 nM"

[[record]]
chemical_string = "Cn1cc(-c2cc(-c3ccc(N4C[C@@H]5CN(S(=O)(=O)c6c(F)cccc6Cl)C[C@@H]5C4)nc3)c3c(C#N)cnn3c2)cn1"
endpoint_label = "GI50"
observed_value = "≤ 10 nM"

[[record]]
chemical_string = "CC(C)(O)COc1cc(-c2cnc(N3C4CC5CC3CC(O)(C5)C4)cn2)c2c(C#N)cnn2c1"
endpoint_label = "GI50"
observed_value = "> 100 nM"

[[record]]
chemical_string = "CC(C)C(=O)NC12CC3CC(C1)N(c1ccc(-c4cc(OCC(C)(C)O)cn5ncc(C#N)c45)cn1)C(C3)C2"
endpoint_label = "GI50"
observed_value = "10 to 50 nM"

[[record]]
chemical_string = "CC(C)(O)COc1cc(-c2ccc(N3C[C@@H]4[C@H](C3)[C@H]4NC(=O)c3ncccc3Cl)nc2)c2c(C#N)cnn2c1"
endpoint_label = "GI50"
observed_value = "> 100 nM"

[[record]]
chemical_string = "COc1cccc(C(=O)NC[C@@H]2[C@H]3CN(c4ccc(-c5cc(-c6cnn(C)c6)cn6ncc(C#N)c56)cn4)C[C@@H]23)n1"
endpoint_label = "GI50"
observed_value = "≤ 10 nM"

[[record]]
chemical_string = "COc1ccc(NC(=O)C23CC4CC(C2)N(c2ccc(-c5cc(OCC(C)(C)O)cn6ncc(C#N)c56)cn2)C(C4)C3)cn1"
endpoint_label = "GI50"
observed_value = "10 to 50 nM"

[[record]]
chemical_string = "COc1ccc(C(=O)NC23CC4CC(C2)N(c2cnc(-c5cc(OCC(C)(C)O)cn6ncc(C#N)c56)cn2)C(C4)C3)cn1"
endpoint_label = "GI50"
observed_value = "10 to 50 nM"

[[record]]
chemical_string = "CC(C)(O)COc1cc(-c2ccc(N3C[C@H]4C[C@@H](NC(=O)c5ncccc5Cl)C[C@H]4C3)nc2)c2c(C#N)cnn2c1"
endpoint_label = "GI50"
observed_value = "≤ 10 nM"

[[record]]
chemical_string = "COc1cccnc1C(=O)NC[C@@H]1[C@H]2CN(c3ccc(-c4cc(-c5cnn(C)c5)cn5ncc(C#N)c45)cn3)C[C@@H]12"
endpoint_label = "GI50"
observed_value = "≤ 10 nM"

[[record]]
chemical_string = "CC(=O)NC12CC3CC(C1)N(c1ccc(-c4cc(-c5cnn(C)c5)cn5ncc(C#N)c45)cn1)C(C3)C2"
endpoint_label = "GI50"
observed_value = "≤ 10 nM"

[[record]]
chemical_string = "COc1ccc(CN2C[C@@H]3CN(c4cnc(-c5cc(OCC(C)(C)O)cn6ncc(C#N)c56)cn4)C[C@@H]3C2)cn1"
endpoint_label = "GI50"
observed_value = "10 to 50 nM"

[[record]]
chemical_string = "Cn1cc(-c2cc(-c3cnc(N4C5CC6CC4CC(NC=O)(C6)C5)cn3)c3c(C#N)cnn3c2)cn1"
endpoint_label = "GI50"
observed_value = "10 to 50 nM"

[[record]]
chemical_string = "CC(C)(O)COc1cc(-c2ccc(N3C4CC5CC3CC(C(=O)Nc3ncccc3Cl)(C5)C4)nc2)c2c(C#N)cnn2c1"
endpoint_label = "GI50"
observed_value = "≤ 10 nM"

[[record]]
chemical_string = "CCOc1cc(-c2cnc(N3C4CC5CC3CC(C(=O)Nc3ccc(OC)nc3)(C5)C4)cn2)c2c(C#N)cnn2c1"
endpoint_label = "GI50"
observed_value = "10 to 50 nM"

[[record]]
chemical_string = "COc1ccc(C(=O)N[C@@]2(C)C[C@H]3CN(c4ccc(-c5cc(OCC(C)(C)O)cn6ncc(C#N)c56)cn4)C[C@H]3C2)cn1"
endpoint_label = "GI50"
observed_value = "> 100 nM"

[[record]]
chemical_string = "Cn1cc(-c2cc(-c3ccc(N4C[C@@H]5C[C@@](C)(NC(=O)c6ncccc6C#N)C[C@@H]5C4)nc3)c3c(C#N)cnn3c2)cn1"
endpoint_label = "GI50"
observed_value = "≤ 10 nM"

[[record]]
chemical_string = "COc1ccc(C(=O)N2[C@@H]3CC[C@H]2[C@H]2CN(c4ccc(-c5cc(OCC(C)(C)O)cn6ncc(C#N)c56)cn4)C[C@H]23)cn1"
endpoint_label = "GI50"
observed_value = "10 to 50 nM"

[[record]]
chemical_string = "Cn1cc(-c2cc(-c3cnc(N4C[C@@H]5C[C@@](C)(NC(=O)c6ccnc(C(F)(F)F)c6)C[C@@H]5C4)cn3)c3c(C#N)cnn3c2)cn1"
endpoint_label = "GI50"
observed_value = "10 to 50 nM"

[[record]]
chemical_string = "Cn1ccc(-c2cc(-c3ccc(N4C[C@@H]5C[C@@](O)(Cc6ccccn6)C[C@@H]5C4)nc3)c3c(C#N)cnn3c2)n1"
endpoint_label = "GI50"
observed_value = "10 to 50 nM"

[[record]]
chemical_string = "COc1ccc(C(=O)NC23CC4CC(C2)N(c2ccc(-c5cc(OCC(C)(C)O)cn6ncc(C#N)c56)cn2)C(C4)C3)cn1"
endpoint_label = "GI50"
observed_value = "10 to 50 nM"

